Where these numbers come from: paper PMC10397247

- Test Target: T1, 4H797-bH
- T1 chain: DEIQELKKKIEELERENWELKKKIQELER
- Protocol Notes: two-hybrid library CCNG1;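 note: natural log of median RNA to DNA barcode read ratio; higher means stronger binding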
# label = YES if interaction score < -0.2 else NO

Exercise: Given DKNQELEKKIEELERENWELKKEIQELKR [4H3354-bH] , is recorded interaction score strictly lower than -0.2?
Solution: NO

Exercise: Given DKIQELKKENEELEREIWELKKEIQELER [4H2697-bH] , is recorded interaction score strictly lower than -0.2?
Solution: YES

Exercise: Given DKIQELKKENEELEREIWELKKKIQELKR [4H2702-bH] , is recorded interaction score strictly lower than -0.2?
Solution: YES

Exercise: Given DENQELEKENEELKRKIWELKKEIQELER [4H1257-bH] , is recorded interaction score strictly lower than -0.2?
Solution: YES

Exercise: Given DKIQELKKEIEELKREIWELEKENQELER [4H2627-bH] , is recorded interaction score strictly lower than -0.2?
Solution: YES

Exercise: Given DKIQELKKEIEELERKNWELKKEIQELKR [4H2618-bH] , is recorded interaction score strictly lower than -0.2?
Solution: NO

Exercise: Given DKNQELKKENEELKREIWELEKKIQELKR [4H3782-bH] , is recorded interaction score strictly lower than -0.2?
Solution: YES

Exercise: Given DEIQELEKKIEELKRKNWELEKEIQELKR [4H370-bH] , is recorded interaction score strictly lower than -0.2?
Solution: NO

Exercise: Given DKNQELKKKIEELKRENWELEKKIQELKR [4H3926-bH] , is recorded interaction score strictly lower than -0.2?
Solution: NO

Exercise: Given DKNQELKKEIEELERENWELEKEIQELER [4H3601-bH] , is recorded interaction score strictly lower than -0.2?
Solution: YES

Exercise: Given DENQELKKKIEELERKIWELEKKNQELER [4H1831-bH] , is recorded interaction score strictly lower than -0.2?
Solution: YES

Exercise: Given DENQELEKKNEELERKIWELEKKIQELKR [4H1446-bH] , is recorded interaction score strictly lower than -0.2?
Solution: YES

Exercise: Given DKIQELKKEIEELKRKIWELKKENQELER [4H2667-bH] , is recorded interaction score strictly lower than -0.2?
Solution: YES

Exercise: Given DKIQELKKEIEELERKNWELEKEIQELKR [4H2610-bH] , is recorded interaction score strictly lower than -0.2?
Solution: YES
